# Read-out: Vascular cell adhesion molecule 1 (VCAM1), VCAM1 (gene 7412)
# Run description: BSK_4H_VCAM1: BioMAP Diversity Plus: 4H Assay for Vascular cell adhesion molecule 1 (VCAM1) Biomarker Activity (AID 2283033)
# Experimental parameters: primary human endothelial cells (HUVEC); actives raise or lower the signal
The source made the active and inactive calls. How the source made its calls: active means hit-call score of the fitted dose curve at least 0.9, where 1 is the maximum; inactive means score below 0.9.
API: response.call in active, inactive

O=C(O)C(F)(F)OC(F)(F)C(F)(F)OC(F)(F)C(F)(F)OC(F)(F)F :: inactive
C=CC(=O)OCC(F)(F)C(F)(F)C(F)(F)C(F)(F)C(F)(F)C(F)(F)C(F)(F)C(F)F :: inactive
O=S(=O)(OCC(F)(F)F)C(F)(F)C(F)(F)C(F)(F)C(F)(F)F :: inactive
Cc1cc(O)c(C(C)(C)C)cc1C(C)(C)C :: active
CCOC(=O)CC(=O)C(F)(F)C(F)(F)F :: inactive

Below: the item to evaluate.
Query string: Test call, this compound: "O=S(=O)(Cl)C(F)(F)C(F)(F)C(F)(F)C(F)(F)C(F)(F)C(F)(F)C(F)(F)C(F)(F)F"
Result string: inactive
